Values compiled from patent US4764358A.

# Test: in vivo
# Design: species or system female Fischer rats
# Experimental Setup: rat, iv, Heart, distribution of radioactivity
Quantity: tissue uptake at 2 h (%ID/g)
One number for each entry, in %ID/g.

Any idea what tissue uptake at 2 h was measured for CC(C)(CCCCCCCCCCCCc1ccc(I)cc1)CC(=O)O [DMIPP] ?
4.37

###

# Test: in vivo
# Parameters: species or system female Fischer rats
# Experimental Setup: rat, iv, Liver, distribution of radioactivity
Quantity: tissue uptake at 2 h (%ID/g)
One number for each entry, in %ID/g.

Any idea what tissue uptake at 2 h was measured for CC(C)(CCCCCCCCCCCCc1ccc(I)cc1)CC(=O)O ?
5.32

###

# Test: in vivo
# Design: species or system female Fischer rats
# Experimental Setup: rat, iv, Kidneys, distribution of radioactivity
Quantity: tissue uptake at 1 h

Any idea what tissue uptake at 1 h was measured for CC(C)(CCCCCCCCCCCCc1ccc(I)cc1)CC(=O)O [DMIPP] ?
1.46 %ID/g

###

# Test: in vivo
# Set-up: species or system female Fischer rats
# Experimental Setup: rat, iv, Thyroid, distribution of radioactivity
Quantity: tissue uptake at 8 h (%ID/g)
Give bare numbers, in %ID/g.

Any idea what tissue uptake at 8 h was measured for CC(C)(CCCCCCCCCCCCc1ccc(I)cc1)CC(=O)O [DMIPP] ?
27.8

###

# Test: in vivo
# Parameters: species or system female Fischer rats
# Experimental Setup: rat, iv, Lungs, distribution of radioactivity
Quantity: tissue uptake at 0.5 h

Any idea what tissue uptake at 0.5 h was measured for CC(C)(CCCCCCCCCCCCc1ccc(I)cc1)CC(=O)O ?
1.42 %ID/g

###

# Test: in vivo
# Parameters: species or system female Fischer rats
# Experimental Setup: rat, iv, Heart, distribution of radioactivity
Quantity: tissue uptake at 4 h (%ID/g)
Numbers only, in %ID/g.

Any idea what tissue uptake at 4 h was measured for CC(C)(CCCCCCCCCCCCc1ccc(I)cc1)CC(=O)O [DMIPP] ?
3.53

###

# Test: in vivo
# Set-up: species or system female Fischer rats
# Experimental Setup: rat, iv, Liver, distribution of radioactivity
Quantity: tissue uptake at 8 h

Any idea what tissue uptake at 8 h was measured for CC(C)(CCCCCCCCCCCCc1ccc(I)cc1)CC(=O)O [DMIPP] ?
2.52 %ID/g

###

# Test: in vivo
# Parameters: species or system female Fischer rats
# Experimental Setup: rat, iv, Kidneys, distribution of radioactivity
Quantity: tissue uptake at 4 h (%ID/g)
Give bare numbers, in %ID/g.

Any idea what tissue uptake at 4 h was measured for CC(C)(CCCCCCCCCCCCc1ccc(I)cc1)CC(=O)O ?
1.39

###

# Test: in vivo
# Design: species or system female Fischer rats
# Experimental Setup: rat, iv, Liver, distribution of radioactivity
Quantity: tissue uptake at 5 min (%ID/g)
One number for each entry, in %ID/g.

Any idea what tissue uptake at 5 min was measured for CC(C)(CCCCCCCCCCCCc1ccc(I)cc1)CC(=O)O ?
7.73

###

# Test: in vivo
# Set-up: species or system female Fischer rats
# Experimental Setup: rat, iv, Kidneys, distribution of radioactivity
# Procedure: DISTRIBUTION OF RADIOACTIVITY (% INJECTED DOSE/GRAM OF TISSUE) IN FASTED RATS AT VARIOUS TIMES AFTER INTRAVENOUS ADMINISTRATION OF 15-(p-[^125 I]IODOPHENYL)-3,3-DIMETHYLPENTADECANOIC ACID (DMIPP) Mean and range values for five (5, 30 and 60 min) or four (2, 4 and 8 h) female Fischer rats. Other tissues that were analyzed include spleen, (% INJECTED DOSE/ORGAN OF TISSUE) IN FASTED Time after injection; Percent injected dose/organ (range)
Quantity: tissue uptake at 0.5 h (%ID/g)
One number for each entry, in %ID/g.

Any idea what tissue uptake at 0.5 h was measured for CC(C)(CCCCCCCCCCCCc1ccc(I)cc1)CC(=O)O ?
1.47

###

# Test: in vivo
# Set-up: species or system female Fischer rats
# Experimental Setup: rat, iv, Lungs, distribution of radioactivity
Quantity: tissue uptake at 8 h

Any idea what tissue uptake at 8 h was measured for CC(C)(CCCCCCCCCCCCc1ccc(I)cc1)CC(=O)O ?
0.79 %ID/g

###

# Test: in vivo
# Set-up: species or system female Fischer rats
# Experimental Setup: rat, iv, Liver, distribution of radioactivity
Quantity: tissue uptake at 1 h (%ID/g)
Give bare numbers, in %ID/g.

Any idea what tissue uptake at 1 h was measured for CC(C)(CCCCCCCCCCCCc1ccc(I)cc1)CC(=O)O ?
6.02

###

# Test: in vivo
# Set-up: species or system female Fischer rats
# Experimental Setup: rat, iv, Heart, distribution of radioactivity
Quantity: tissue uptake at 0.5 h (%ID/g)
Numbers only, in %ID/g.

Any idea what tissue uptake at 0.5 h was measured for CC(C)(CCCCCCCCCCCCc1ccc(I)cc1)CC(=O)O [DMIPP] ?
5.06

###

# Test: in vivo
# Design: species or system female Fischer rats
# Experimental Setup: rat, iv, Kidneys, distribution of radioactivity
# Description: DISTRIBUTION OF RADIOACTIVITY (% INJECTED DOSE/GRAM OF TISSUE) IN FASTED RATS AT VARIOUS TIMES AFTER INTRAVENOUS ADMINISTRATION OF 15-(p-[^125 I]IODOPHENYL)-3,3-DIMETHYLPENTADECANOIC ACID (DMIPP) Mean and range values for five (5, 30 and 60 min) or four (2, 4 and 8 h) female Fischer rats. Other tissues that were analyzed include spleen, (% INJECTED DOSE/ORGAN OF TISSUE) IN FASTED Time after injection; Percent injected dose/organ (range)
Quantity: tissue uptake at 2 h (%ID/g)
One number for each entry, in %ID/g.

Any idea what tissue uptake at 2 h was measured for CC(C)(CCCCCCCCCCCCc1ccc(I)cc1)CC(=O)O [DMIPP] ?
1.41

###

# Test: in vivo
# Parameters: species or system female Fischer rats
# Experimental Setup: rat, iv, Lungs, distribution of radioactivity
Quantity: tissue uptake at 2 h
Don't forget the unit after the value.

Any idea what tissue uptake at 2 h was measured for CC(C)(CCCCCCCCCCCCc1ccc(I)cc1)CC(=O)O ?
1.12 %ID/g

###

# Test: in vivo
# Parameters: species or system female Fischer rats
# Experimental Setup: rat, iv, Heart, distribution of radioactivity
Quantity: tissue uptake at 8 h (%ID/g)
One number for each entry, in %ID/g.

Any idea what tissue uptake at 8 h was measured for CC(C)(CCCCCCCCCCCCc1ccc(I)cc1)CC(=O)O ?
2.24

###

# Test: in vivo
# Set-up: species or system female Fischer rats
# Experimental Setup: rat, iv, Blood, distribution of radioactivity
# Method: DISTRIBUTION OF RADIOACTIVITY (% INJECTED DOSE/GRAM OF TISSUE) IN FASTED RATS AT VARIOUS TIMES AFTER INTRAVENOUS ADMINISTRATION OF 15-(p-[^125 I]IODOPHENYL)-3,3-DIMETHYLPENTADECANOIC ACID (DMIPP) Mean and range values for five (5, 30 and 60 min) or four (2, 4 and 8 h) female Fischer rats. Other tissues that were analyzed include spleen, (% INJECTED DOSE/ORGAN OF TISSUE) IN FASTED Time after injection; Percent injected dose/organ (range)
Quantity: tissue uptake at 8 h
Don't forget the unit after the value.

Any idea what tissue uptake at 8 h was measured for CC(C)(CCCCCCCCCCCCc1ccc(I)cc1)CC(=O)O [DMIPP] ?
0.24 %ID/g

###

# Test: in vivo
# Parameters: species or system female Fischer rats
# Experimental Setup: rat, iv, Lungs, distribution of radioactivity
Quantity: tissue uptake at 1 h (%ID/g)
Give bare numbers, in %ID/g.

Any idea what tissue uptake at 1 h was measured for CC(C)(CCCCCCCCCCCCc1ccc(I)cc1)CC(=O)O ?
1.17

###

# Test: in vivo
# Design: species or system female Fischer rats
# Experimental Setup: rat, iv, Heart, distribution of radioactivity
Quantity: tissue uptake at 1 h (%ID/g)
One number for each entry, in %ID/g.

Any idea what tissue uptake at 1 h was measured for CC(C)(CCCCCCCCCCCCc1ccc(I)cc1)CC(=O)O [DMIPP] ?
4.49

###

# Test: in vivo
# Design: species or system female Fischer rats
# Experimental Setup: rat, iv, Thyroid, distribution of radioactivity
Quantity: tissue uptake at 5 min (%ID/g)
Give bare numbers, in %ID/g.

Any idea what tissue uptake at 5 min was measured for CC(C)(CCCCCCCCCCCCc1ccc(I)cc1)CC(=O)O [DMIPP] ?
16.7
